measured-parameter: melting point

Query: Quick one: melting point of CCc1c(C)cccc1C(=O)NC1CN2CCC1CC2 (racemic) ?
Result: 125 °C

Query: Which melting point is reported for this compound? Cc1ccc(NC(=O)OC2CN3CCC2CC3)cc1 (stereo not given)
Result: 186 to 188 °C

Query: # query: melting point of entry `CC(C)(C)OC(=O)c1ccc(C#Cc2cnc3nc(N)nc(O)c3c2)cc1`
Result: > 260 °C

Query: Fill blank: measured melting point of the compound `COc1cc2c(cc1C#Cc1ccc(C)cc1)C(C)(C)CCC2(C)C` is ____.
Result: 127 °C

Query: # lookup: melting point of Cc1cc(Cl)c(-n2nc(C)n(C(F)F)c2=O)cc1OC(C)C(=O)O (stereo not given)
Result: 56 to 60 °C

---

measured-parameter: melting point

Query: Value lookup for melting point; key = `Nc1nc2ccccc2n1S(=O)(=O)C=Cc1ccccc1`
Result: 191 °C

Query: Endpoint output: melting point of `CCN(CC)C(=O)c1cc(-c2ccc(OC)cc2)ccc1OC` . Value?
Result: 58 to 60 °C

Query: Entry `Cc1c(NC(=O)c2ccc(-c3cccc(F)c3)cc2)ccc2cc(CN3CCCC3)cnc12` has what melting point?
Result: 158 to 159 °C

Query: Any idea what melting point was measured for CC(C)(C)OC(=O)NCc1ccc(OCCC2Oc3ccccc3N(Cc3ccccc3Cl)C2=O)cc1 (stereo unspecified) ?
Result: 121 to 123 °C

Query: Query (molecule): `COC(=O)C(C)(C)CCCOc1ccc(NC(=O)C(C)(C)CCCOc2cc(C)ccc2C)cc1` ; field requested: melting point
Result: 62 to 63 °C

Query: Look at this molecule and give its reported melting point. `Cn1c(=O)c(-c2ccccc2Cl)cc2cnc(N[C@H]3CC[C@H](N)CC3)nc21`
Result: 190 to 191 °C

Query: Find the recorded melting point belonging to `FC(F)(F)c1ccc(C=Cc2nc(CNc3ccc(CCCCn4ccnn4)cc3)co2)cc1` and report it.
Result: 113 to 115 °C

Query: Fill blank: measured melting point of the molecule `CC(C)(C)OC(=O)N1CCC(c2cc(C(F)(F)F)ccc2N)CC1` is ____.
Result: 120 °C

Query: Value lookup for melting point; key = `Cc1ccc(S(C)(=O)=O)c(C)c1Cl`
Result: 116 to 119 °C

Query: # query: melting point of entry Cc1cccc(C)c1OP(=O)(c1ccccc1)c1cc(O)ccc1O (stereo unspecified)
Result: 172 °C

Query: # melting point lookup, item `CCOC(=O)C=CN1C(C)(C)CC(OC(=O)CCl)CC1(C)C`
Result: 80 to 82 °C

Query: Looking for the measured melting point of `ON=Cc1ncc(-c2ccccc2)o1` , can you help?
Result: 208 to 210 °C

Query: What value of melting point has been recorded for this entry: `Nc1ccc2ccc(Oc3cccc(F)c3)nc2n1`
Result: 165 °C

Query: Which value of melting point has been reported for `CCOc1c(NCc2ccc(C#N)c(CC)c2)c(=O)c1=O` in the records?
Result: 239 to 242 °C

Query: Quick check: melting point of `CNC(=O)Oc1ccc2c(N(C)CCN3CCOCC3)noc2c1` ?
Result: 94 to 95 °C

Query: Given the entry `O=C(O)c1cccc(-c2cccc(Oc3ccc(Cl)cc3Cl)n2)c1` , report its measured melting point.
Result: 244 to 245 °C

Query: Could you tell me which melting point is on file for `Cc1ncncc1C(=O)Nc1ccc(-n2nc(C(F)(F)F)cc2C2CC2)cc1` ?
Result: 163 to 166 °C

Query: Please give the measured melting point for this molecule: `Cc1cccc(OC2=NS(=O)(=O)N=C(Oc3cccc(C)c3)N2C)c1`
Result: 221 to 223 °C

Query: Given the molecule `COC(=N)c1ccc(-c2ccccc2[N+](=O)[O-])o1` , what is its reported melting point?
Result: 107 to 108 °C

Query: Looking for the measured melting point of `Cc1cccc(-c2n[nH]cc2-c2ccc(F)c(-c3ccc(CN4CCOCC4)cn3)c2)n1` , can you help?
Result: 68 to 70 °C

Query: Give its melting point value. Item: `O=C(C=c1sc2n(c1=O)Cc1ccccc1N=2)NCc1ccccc1`
Result: 258 to 259 °C

Query: I am curious: what melting point value has been reported for `CCCCOc1ccc(-c2ccc(C)c(C#N)c2C#N)cc1` ?
Result: 152 °C

Query: Recorded melting point for `N#Cc1ccc2c(c1)c(CCN1C(=O)c3ccccc3C1=O)cn2Cc1ccccc1` , please?
Result: 182 to 184 °C

Query: Recorded melting point of `COc1cccc(CN2CCN(C(=S)SC)CC2)c1OC` , please.
Result: 110 to 111 °C

Query: Report melting point for `CCn1cc(C(=O)O)c(=O)c2ccc(I)cc21` please.
Result: 237 to 238 °C

Query: # melting point lookup, item `Cc1cn(COCCOC(=O)c2ccccc2)c(=O)[nH]c1=O`
Result: 94 to 99 °C

Query: Reported melting point, molecule `CCNC(=O)c1ccc(N2CCNCC2)cc1` : ____
Result: 131 to 134 °C

Query: What value of measured melting point is listed for O=C1CC(c2ccccc2Cl)Cc2[nH]nc(-c3ccccc3)c21 (stereo unspecified) ?
Result: 218 to 222 °C

Query: # query: melting point of entry `CN(C)C=C(C(=O)c1cccc2c1OC(F)(F)O2)C(=O)C1CC1`
Result: 118 to 119 °C

Query: Sample `CCCCCCCCCCOc1cc(OCCCCCCCCCC)cc(N(CC(=O)OCc2ccccc2)CC(=O)OCc2ccccc2)c1` — what was its melting point?
Result: 55 to 57 °C

Query: Looking for the measured melting point of `Cc1cccc(C)c1NC(=O)NCCCNC(C)C` , can you help?
Result: 152 to 154 °C

Query: Tell me the measured melting point of `COc1ccc(-c2nc(Oc3ccc(C)cc3)ncc2C(=O)N2CCOCC2)cc1OC` , please.
Result: 152 °C

Query: Any idea what its melting point is? The molecule is CC(=O)N(CC(=O)N1c2ccccc2N(Cc2ccccc2)C(=O)[C@H]2CCC[C@H]21)C(=O)CCc1ccccc1 (relative stereo)
Result: 138 to 140 °C

Query: Look at this molecule and give its reported melting point. `O=C(O)Cc1cccc2c(-c3ccccc3)nccc12`
Result: 192 °C

Query: Name the recorded melting point for `c1ccc(-c2ccc(-c3nc4n(n3)Cc3ccccc3-4)cc2)cc1` .
Result: 231 °C

Query: Return reported melting point; argument: `Nc1cccc(Nc2ncnc3[nH]cc(C(=O)c4ccccc4)c23)n1`
Result: > 300 °C

Query: # lookup: melting point of `Nc1sc2c(c1C(=O)c1ccc(Br)cc1)CCN(C(=O)Nc1ccccc1)C2`
Result: 89 to 90 °C

Query: So what's the measured melting point for this one? CCOc1ccc(F)cc1C1OC(=O)NC1=O (stereo unspecified)
Result: 188 to 190 °C

Query: For the molecule shown here, COC(=O)c1cc(CS(=O)c2ccccc2)cnc1C1=NC(C)(C(C)C)C(=O)N1 (stereo unspecified) , give the reported melting point.
Result: 132 to 136 °C

Query: // returns reported melting point for input `C#CCNC1=Nc2ccc(Cl)cc2C(c2ccccc2)=NC1`
Result: 202 °C

Query: What measured melting point goes with `COC(=O)c1cccc(NC(=O)CC(=O)c2ccccc2)c1C(=O)OC` ?
Result: 100 to 103 °C
